- targetOrTestSystem: T1, EsCas13d, nuclease-dead (Eubacterium siraeum, UniProt B0MS50, R295A;H300A;R849A;H854A)
- T1 sequence: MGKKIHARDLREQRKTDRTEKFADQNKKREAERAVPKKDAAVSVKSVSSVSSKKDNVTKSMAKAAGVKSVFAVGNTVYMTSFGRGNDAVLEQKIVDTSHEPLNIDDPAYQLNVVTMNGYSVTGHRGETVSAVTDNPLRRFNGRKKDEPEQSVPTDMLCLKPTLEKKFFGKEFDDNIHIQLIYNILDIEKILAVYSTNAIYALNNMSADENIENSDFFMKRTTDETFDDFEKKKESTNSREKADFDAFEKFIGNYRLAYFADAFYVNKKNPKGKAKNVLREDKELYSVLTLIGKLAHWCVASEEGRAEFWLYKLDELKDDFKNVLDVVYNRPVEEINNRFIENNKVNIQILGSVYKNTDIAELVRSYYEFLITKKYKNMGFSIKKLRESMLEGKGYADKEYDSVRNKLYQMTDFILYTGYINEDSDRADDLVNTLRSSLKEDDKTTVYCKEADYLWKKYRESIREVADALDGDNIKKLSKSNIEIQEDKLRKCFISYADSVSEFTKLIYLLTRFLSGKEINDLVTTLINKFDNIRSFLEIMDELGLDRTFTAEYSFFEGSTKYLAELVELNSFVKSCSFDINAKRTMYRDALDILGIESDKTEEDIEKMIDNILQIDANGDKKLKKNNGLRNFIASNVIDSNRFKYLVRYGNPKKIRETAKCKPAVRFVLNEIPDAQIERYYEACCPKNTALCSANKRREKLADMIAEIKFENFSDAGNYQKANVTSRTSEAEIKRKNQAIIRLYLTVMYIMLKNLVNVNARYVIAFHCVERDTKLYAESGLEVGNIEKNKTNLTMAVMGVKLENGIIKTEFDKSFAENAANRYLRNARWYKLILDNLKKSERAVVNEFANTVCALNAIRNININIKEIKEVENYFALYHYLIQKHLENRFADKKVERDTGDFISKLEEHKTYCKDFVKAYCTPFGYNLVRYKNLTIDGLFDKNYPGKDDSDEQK
- protocolNotes: crRNA (strand 1, pre-loaded); Mg2+; 40 mM Tris-HCl pH 7.5, 150 mM NaCl, 6 mM MgCl2, 1 mM DTT, 0.1% Tween-20, 0.2 mg/ml BSA; 25 C; 10 min per concentration, then washed
- experimentalContext: tags: His6-TwinStrep-SUMO cleaved; N-terminal SNAP kept (SNAP-Surface 488); label: 3' end held by stalled T7 RNA polymerase
reportedProperty: pKd
# log scale: pKd equals minus log10 of the concentration in mol/L

query: # get_value(readout='pKd', item= target 1 MT 5'PFS ACU 3'PFS UUU (mixed) RNA 1: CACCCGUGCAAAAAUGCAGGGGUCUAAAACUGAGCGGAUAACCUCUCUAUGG RNA 2: GGGAAUGGAUCCACAUCUACGAAUUCACUCCAUAGAGAGGUUAUCCGCUCAUUUAGAUCGGAAGAGCACACGU )
result: 7.40

query: Request: target 1 A1G,G17U (mixed) RNA 1: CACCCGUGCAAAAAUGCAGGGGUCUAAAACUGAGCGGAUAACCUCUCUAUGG RNA 2: GGGAAUGGAUCCACAUCUACGAAUUCGUACCAUAUAGAGGUUAUCCGCUCGCCGAGAUCGGAAGAGCACACGU
result: 7.67

query: Check target 2 MT 5'PFS GAC 3'PFS CAU (mixed) RNA 1: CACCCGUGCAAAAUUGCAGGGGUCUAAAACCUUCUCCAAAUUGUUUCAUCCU RNA 2: GGGAAUGGAUCCACAUCUACGAAUUCGACAGGAUGAAACAAUUUGGAGAAGCAUAGAUCGGAAGAGCACACGU too.
result: 8.13

query: Try this binder too: target 1 MT 5'PFS UUG 3'PFS UAU (mixed) RNA 1: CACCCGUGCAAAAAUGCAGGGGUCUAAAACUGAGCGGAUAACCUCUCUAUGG RNA 2: GGGAAUGGAUCCACAUCUACGAAUUCUUGCCAUAGAGAGGUUAUCCGCUCAUAUAGAUCGGAAGAGCACACGU
result: 7.77

query: Ok, now target 2 MT 5'PFS UUA 3'PFS UGC (mixed) RNA 1: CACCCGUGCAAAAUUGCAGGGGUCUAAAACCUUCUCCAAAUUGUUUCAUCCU RNA 2: GGGAAUGGAUCCACAUCUACGAAUUCUUAAGGAUGAAACAAUUUGGAGAAGUGCAGAUCGGAAGAGCACACGU
result: 7.48

query: Lookup target 2 MT 5'PFS GUU 3'PFS CCG (mixed) RNA 1: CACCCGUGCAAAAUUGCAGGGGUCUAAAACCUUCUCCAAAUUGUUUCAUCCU RNA 2: GGGAAUGGAUCCACAUCUACGAAUUCGUUAGGAUGAAACAAUUUGGAGAAGCCGAGAUCGGAAGAGCACACGU
result: 7.84

query: What about this binder? target 1 insA 3' of 19,insC 3' of 9 (mixed) RNA 1: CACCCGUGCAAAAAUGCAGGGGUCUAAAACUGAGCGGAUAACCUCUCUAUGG RNA 2: GGGAAUGGAUCCACAUCUACGAAUUCGUACCAUAAGAGAGGUUACUCCGCUCACCGAGAUCGGAAGAGCACACGU
result: 7.26

// data source = paper PMC10786891
